- targetEntity: VEGFR2 (KDR/Flk-1) (Homo sapiens)
- Sequence (P35968 20-1356): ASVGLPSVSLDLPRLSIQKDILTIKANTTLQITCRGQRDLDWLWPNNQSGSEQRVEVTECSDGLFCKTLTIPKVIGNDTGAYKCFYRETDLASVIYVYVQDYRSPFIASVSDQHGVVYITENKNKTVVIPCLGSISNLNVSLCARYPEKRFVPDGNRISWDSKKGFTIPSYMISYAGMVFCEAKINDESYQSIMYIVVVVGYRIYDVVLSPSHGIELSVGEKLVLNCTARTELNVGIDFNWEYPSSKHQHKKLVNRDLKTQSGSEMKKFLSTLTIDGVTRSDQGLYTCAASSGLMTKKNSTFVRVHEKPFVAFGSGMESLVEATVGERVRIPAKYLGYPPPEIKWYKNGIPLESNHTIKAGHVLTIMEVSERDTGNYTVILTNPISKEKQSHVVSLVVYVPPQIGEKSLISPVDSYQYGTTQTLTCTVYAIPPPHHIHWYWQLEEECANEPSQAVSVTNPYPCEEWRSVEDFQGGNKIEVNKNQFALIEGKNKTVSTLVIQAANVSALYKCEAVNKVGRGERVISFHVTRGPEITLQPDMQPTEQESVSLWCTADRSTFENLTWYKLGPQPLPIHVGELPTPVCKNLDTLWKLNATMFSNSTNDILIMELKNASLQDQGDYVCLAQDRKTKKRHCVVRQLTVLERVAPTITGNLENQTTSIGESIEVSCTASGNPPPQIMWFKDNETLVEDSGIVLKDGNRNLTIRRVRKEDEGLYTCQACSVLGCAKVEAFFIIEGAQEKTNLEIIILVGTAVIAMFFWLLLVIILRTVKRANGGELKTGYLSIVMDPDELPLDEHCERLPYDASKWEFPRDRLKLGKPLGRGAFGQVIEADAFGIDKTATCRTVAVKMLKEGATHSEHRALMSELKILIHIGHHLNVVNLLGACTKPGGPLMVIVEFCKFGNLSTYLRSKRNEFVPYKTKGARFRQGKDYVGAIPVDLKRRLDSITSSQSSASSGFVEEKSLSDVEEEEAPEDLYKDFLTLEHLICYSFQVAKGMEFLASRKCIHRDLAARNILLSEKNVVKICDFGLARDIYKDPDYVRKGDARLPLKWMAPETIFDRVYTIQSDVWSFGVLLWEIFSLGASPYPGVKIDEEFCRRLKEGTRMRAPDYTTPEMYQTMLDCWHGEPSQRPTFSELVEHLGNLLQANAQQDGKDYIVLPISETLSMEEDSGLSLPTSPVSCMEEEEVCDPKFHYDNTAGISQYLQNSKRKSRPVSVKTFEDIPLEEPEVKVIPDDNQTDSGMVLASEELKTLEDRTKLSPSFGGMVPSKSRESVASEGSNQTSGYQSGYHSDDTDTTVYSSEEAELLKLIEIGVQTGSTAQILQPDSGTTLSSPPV
- assayExplanation: in vitro HTScan VEGFR2 kinase assay, colorimetric ELISA detection ([…] ATP)
- Assay type: biochemical
observedProperty: IC50

Note down IC50 recorded for COc1cc2c3c(c4cc(OC)c(OC)cc4c2cc1OC)CN1CCC[C@@H]1C3
~9.2 µM
